Test: growth suppression of yeast trafficking mutant, preliminary HTS, modulators of trafficking downstream of Golgi apparatus project, 1536-format plate, OD 615 nm (AID 637)
Details: yeast transport mutant growth, absorbance 615 nm, 18 h
Calls of active or inactive are those of the source. Rule as the data show it: active = inhibition above about 30%; inactive = the rest.
Please state which outcome applies, choosing from 1 (active), -1 (inactive)

Take a look at these entries with their results.
Brc1ccc2ncnc(Nc3ccc(N4CCOCC4)cc3)c2c1; -1
CC(=O)c1sc(NC(=O)C2COc3ccccc3O2)nc1C (stereo unspecified); -1
CCOC(=O)N1CCC(Nc2nc3ccccc3n3cnnc23)CC1; -1
O=C(CCn1c(=O)oc2ccccc21)NCCN1CCOCC1; -1
CCCCN(CC)CCNC(=O)c1cc2c(C)nc3ccccc3c2o1; -1

# input Answer briefly: the call reported for Cn1c(=O)c2c(nc(SCCOc3ccc4ccc(=O)oc4c3)n2C)n(C)c1=O in this assay.
# output -1

# input Same lookup for CC1(C)CC(=O)c2cnc(NC(=O)CCc3ccccc3)nc2C1 , please.
# output -1

# input Same lookup for CCCCC(NC(C)=O)c1nc2ccccc2n1CCC (stereo unspecified) , please.
# output -1

# input Same lookup for O=C(O)CC(NC(=O)c1ccccc1NC(=O)c1ccccc1)C(=O)O (stereo unspecified) , please.
# output 1

# input Same lookup for COc1cccc(NC(=O)c2nnn(Cc3ccc(Br)cc3F)c2N)c1 , please.
# output -1

# input Same lookup for CC(=O)c1c(OC(=O)c2ccco2)c2ccccc2n1C , please.
# output -1
